The origin of these recorded values is PubChem BioAssay.

MEASUREMENT_NOTES: basal HepG2 mitochondrial membrane potential changes, profiling panel, cell-based, JC-1 fluorescence, 24 h, 100 nL compound (AID 1167); also: test concentration not given here
PARTICULARS: higher = more signal
z-score for assorted compounds
Give only the figure.

Consider the worked cases shown below.
{"COMPOUND": "CN1C(=O)C2C(C1=O)C1C=C(CCCO)C2C(c2cccs2)N1C (centres undefined)", "REPORTED_RESULT": 0.699}
{"COMPOUND": "CCOC(=O)C[C@H]1[C@H](OC(=O)c2ccccc2-c2ccccc2)[C@@H](NC(=O)c2ccc3ccccc3c2)c2cc(OCCCO)ccc2N1C(=O)c1ccc2ccccc2n1", "REPORTED_RESULT": 0.732}
{"COMPOUND": "C=CCC(OC(C)=O)[C@@H]1[C@@H](N(Cc2cccc3ccccc23)C(=O)c2ccc(C)cc2)c2cc(OCCCO)ccc2N1C(=O)Cc1ccc(OC)cc1 (some centres undefined)", "REPORTED_RESULT": 1.77}

[in] Quick check: z-score of C=CCC(OC(C)=O)[C@@H]1[C@@H](N(Cc2ccc(-c3ccccc3)cc2)C(=O)Cc2ccc(OC)cc2)c2cc(OCCCO)ccc2N1C(=O)c1ccc2ccccc2n1 (some centres undefined) ?
[out] 2.56

----------
# key: entry, value: composite z-score
TARGET_DESC: Follistatin (Homo sapiens) (UniProt P19883)
Sequence (P19883 whole entry, looked up): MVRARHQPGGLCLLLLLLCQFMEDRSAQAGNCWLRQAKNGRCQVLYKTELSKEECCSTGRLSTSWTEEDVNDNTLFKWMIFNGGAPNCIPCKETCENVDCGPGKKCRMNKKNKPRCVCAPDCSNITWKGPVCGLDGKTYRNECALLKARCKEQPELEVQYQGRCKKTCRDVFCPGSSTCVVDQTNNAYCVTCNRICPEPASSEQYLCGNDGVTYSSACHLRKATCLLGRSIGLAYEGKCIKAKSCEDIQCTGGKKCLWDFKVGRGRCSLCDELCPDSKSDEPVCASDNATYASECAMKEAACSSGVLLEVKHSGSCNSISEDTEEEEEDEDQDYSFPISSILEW
MEASUREMENT_NOTES: follistatin binders on small-molecule microarrays, primary screen, biochemical, small-molecule microarray, 635/667 nm fluorescence (AID 1132)
PARTICULARS: FST binding, 635 nm fluorescence, higher = more signal

Reference set (2 entries):
{"COMPOUND": "COc1ccc(C(O)C2C=CC3C(=O)N(c4ccccc4)C(=O)C3N2Nc2ccc([N+](=O)[O-])cc2)cc1OCc1ccccc1 (stereo unspecified)", "TARGET_DESC": "Follistatin (Homo sapiens) (UniProt P19883)", "composite z-score": 0.508}
{"COMPOUND": "O=C1C2C=CC(C(O)c3ccc(B(O)O)cc3)N(Nc3ccccc3)C2C(=O)N1c1ccccc1 (stereo unspecified)", "TARGET_DESC": "Follistatin (Homo sapiens) (UniProt P19883)", "composite z-score": 0.0669}

[in] Which measured composite z-score value corresponds to "CCOC(=O)C1=CC[C@@H](c2ccccc2Cl)N(S(=O)(=O)c2ccc(C)cc2)C1" ?
[out] 0.37

[in] Check "NCCCCCNC(=O)[C@H]1C[C@H]2C(=O)NCC(=O)N2[C@H]1c1cccc(OCCO)c1" too.
[out] 1.26

[in] "CC(C)(C)OC(=O)CC[C@@]1(C(=O)O)N=C(c2ccc(OCCCO)cc2)O[C@@H]1c1ccccc1N=[N+]=[N-]" ?
[out] 0.589

[in] Do the same for "COC(=O)[C@@]1(Cc2ccccc2)N=C(c2ccc(OCCCO)cc2)O[C@H]1c1ccccc1N=[N+]=[N-]" please
[out] 1.41

----------
Quick reference for composite z-score among some compounds
TARGET_DESC: Calmodulin-1 (Homo sapiens)
MEASUREMENT_NOTES: CALM1 binders on microarrays, EGTA buffer, profiling panel, biochemical, small-molecule microarray, Cy5-labelled CALM1 (AID 1111);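 also: labelled calmodulin applied in Tris saline Tween buffer holding calcium plus EGTA and DTT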
PARTICULARS: Cy5-CALM1 binding fluorescence, higher = more signal
// response body must contain only the number

{"COMPOUND": "O=C/C=C/c1ccc(Cl)cc1", "composite z-score": -0.925}

Let's switch to this compound now.
[in] Please look up its composite z-score: "O=C1O[C@H](c2ccccc2)[C@H](c2ccccc2)N2[C@H]1[C@@H](C(=O)O)[C@]1(C(=O)Nc3ccc(C#CC4=CCCCC4)cc31)[C@H]2c1ccc(OCCO)cc1"
[out] 0.447

----------
System: Inhibin beta A chain (activin A)
MEASUREMENT_NOTES: INHBA (activin A) binders on microarrays, primary screen, biochemical, small-molecule microarray, 635 nm fluorescence scan (AID 1107);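 also: mouse activin A protein probed at 4.33 µg/mL on printed slides; score merges bound-protein fluorescence near 667 nm with spot signal-to-noise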
PARTICULARS: small-molecule microarray binding, higher = more signal
OBSERVED_PROPERTY: composite z-score
Number, no unit, nothing else.

Sample answers from the record:
{"COMPOUND": "CCC(CC)C(O)C1C=CC2C(=O)N(c3ccccc3)C(=O)C2N1Nc1ccc(C#N)cc1 (configuration not stated)", "composite z-score": 0.794}
{"COMPOUND": "N#Cc1ccc(NN2C(C(O)c3cccs3)C=CC3C(=O)N(c4ccccc4)C(=O)C32)cc1 (configuration not stated)", "composite z-score": 0.207}

[in] Entry under review: C=CCC(OC(C)=O)[C@@H]1[C@@H](N(Cc2cccc3ccccc23)C(=O)c2ccc(C)cc2)c2cc(OCCCO)ccc2N1C(=O)Cc1ccc(OC)cc1 (some centres not stated) . Reported composite z-score?
[out] 1.05

[in] Quick one: C=CCC(OC(C)=O)[C@@H]1[C@@H](N(Cc2ccc(-c3cccc(C(F)(F)F)c3)o2)C(=O)c2ccc(C)cc2)c2cc(OCCCO)ccc2N1C(=O)c1ccc(-c2ccccc2)cc1 (some centres not stated)
[out] 1.23

[in] Repeat for the following compound: O=C1OCC=C[C@H]2OC34C=CCN(c5ccc6ccccc6c5)C(=O)[C@H]3N(CCCO)C(=O)[C@@H]4[C@@H]12 (some centres not stated)
[out] 0.374

[in] // query: "CC(C)C(=C=CC[C@H](O)c1cccc(OCCO)c1)C[C@H](O)COCc1ccccc1"
[out] 0.405

[in] Queued: [N-]=[N+]=NCc1ccccc1C[C@]1(C(=O)NCC(O)CO)N=C(c2ccc(OCCCO)cc2)O[C@H]1c1ccccc1N=[N+]=[N-] (some centres not stated)
[out] 0.967

----------
Tested on: Fibrinogen (Alexa647-labelled)
MEASUREMENT_NOTES: fibrinogen binders on compound microarrays, profiling panel, artefact control for SMM control-protein annotation, biochemical, small-molecule microarray, 635/667 nm fluorescence (AID 1131);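 also: z-score merges 667 nm fluorescence with per-spot signal-to-noise over triplicate slides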
PARTICULARS: fibrinogen-A647 binding fluorescence, higher = more signal
OBSERVED_PROPERTY: composite z-score
I'd appreciate a reply containing only the number, no unit.

// worked examples, composite z-score included
{"MOLECULE": "C=C(CCCC)C(=O)CC[C@H](OC(=O)c1cccnc1)c1cccc(OCCO)c1", "OBSERVED_PROPERTY": "composite z-score", "REPORTED_RESULT": -0.847}
{"MOLECULE": "[N-]=[N+]=Nc1ccccc1C[C@]1(C(=O)NCCN2CCOCC2)N=C(c2ccc(OCCCO)cc2)O[C@H]1c1ccccc1", "OBSERVED_PROPERTY": "composite z-score", "REPORTED_RESULT": 0.952}
{"MOLECULE": "O=C1O[C@@H](c2ccccc2)[C@@H](c2ccccc2)N2[C@@H](c3ccc(O)cc3)[C@]3(C(=O)Nc4ccc(C#CC5(O)CCCCCC5)cc43)[C@@H](C(=O)N3CCCCCCC3)[C@H]12", "OBSERVED_PROPERTY": "composite z-score", "REPORTED_RESULT": 0.962}

[in] I have this molecule here, "COCCOC(=O)N1C(=O)[C@@]2(c3ccccc31)[C@H](C(=O)Nc1nc3ccccc3s1)[C@H]1C(=O)O[C@H](c3ccccc3)[C@H](c3ccccc3)N1[C@@H]2c1ccc(OCCO)cc1" , and I need its recorded composite z-score.
[out] 0.962

[in] Then this molecule: "O=c1cccc(CCc2ccccc2)o1"
[out] -0.229

[in] Moving on to "O=C1O[C@@H](c2ccccc2)[C@@H](c2ccccc2)N2[C@@H](c3ccccc3OCCO)[C@]3(C(=O)Nc4ccc(C#CC5(O)CCCCCC5)cc43)[C@@H](C(=O)Nc3nc4ccccc4s3)[C@H]12"
[out] 0.991

[in] Now try "COc1ccc([Si](C)(C)[C@@H]2[C@@H](CC(=O)N(CCO)Cc3ccccc3)O[C@]3(C(=O)N(C)c4ccccc43)[C@H]2C)cc1" .
[out] 0.958

[in] Input "[N-]=[N+]=Nc1ccccc1[C@H]1OC(c2ccc(OCCCO)cc2)=N[C@@]1(CCS(=O)(=O)c1ccccc1)C(=O)O"
[out] 0.773

[in] And what about the molecule "CCOC(=O)C[C@H]1[C@H](OC(=O)c2ccc(-c3ccccc3)cc2)[C@@H](NC(=O)c2ccc3ccccc3c2)c2cc(OCCCO)ccc2N1C(=O)Cc1ccc(OC)cc1" ?
[out] 0.536

[in] Same lookup for "O=C1O[C@@H](c2ccccc2)[C@@H](c2ccccc2)N2[C@@H](c3ccc(OCCO)cc3)[C@]3(C(=O)Nc4ccc(C#CC5=CCCCC5)cc43)[C@@H](C(=O)O)[C@H]12" , please.
[out] 0.865

[in] "O=C(CS)NCCCCCCNC(=O)[C@@H]1C[C@@H]2C(=O)N3CCC[C@H]3C(=O)N2[C@@H]1c1ccc(O)cc1" ?
[out] -0.627

[in] Quick one: C=CCC(OC(C)=O)[C@@H]1[C@@H](N(Cc2ccc(-c3cccc(C(F)(F)F)c3)o2)C(=O)c2ccc(C)cc2)c2cc(OCCCO)ccc2N1C(=O)c1ccc(-c2ccccc2)cc1 (some centres undefined)
[out] -0.238

[in] Entry to check: "[N-]=[N+]=NCc1ccccc1C[C@]1(C(=O)O)N=C(c2ccc(OCCCO)cc2)O[C@H]1c1ccccc1"
[out] 0.687

[in] Would you kindly repeat that for "COC(=O)[C@@]1(Cc2ccc(F)cc2)[C@H]2c3cc(C(=O)N(C)C)n(CCc4ccccn4)c3C[C@H]2CN1C(=O)c1ccccc1" ?
[out] 0.0039

[in] Proceed to "CC1=C2[C@@H](CCc3ccccc3)OB(O)C[C@@H]2n2c(=O)n(-c3ccccc3)c(=O)n2C1"
[out] 0.923

[in] Would you mind doing "COC(=O)[C@@]1(Cc2ccc(OC)cc2)[C@H]2c3cc(C(=O)N4CCCC4)n(CCc4c[nH]c5cc(F)ccc45)c3C[C@H]2CN1C(=O)c1ccccc1" as well?
[out] 0.994

[in] Ok, now "Cc1ccc(S[C@]2(C(=O)O)CC(=O)N(C3Cc4ccccc4C3)[C@@H]2c2ccc(CO)cc2I)cc1"
[out] 0.439
